ASSAYED TARGET: biotinylated human Gal-3 (hGal-3) (Homo sapiens)
Sequence (P17931 whole entry): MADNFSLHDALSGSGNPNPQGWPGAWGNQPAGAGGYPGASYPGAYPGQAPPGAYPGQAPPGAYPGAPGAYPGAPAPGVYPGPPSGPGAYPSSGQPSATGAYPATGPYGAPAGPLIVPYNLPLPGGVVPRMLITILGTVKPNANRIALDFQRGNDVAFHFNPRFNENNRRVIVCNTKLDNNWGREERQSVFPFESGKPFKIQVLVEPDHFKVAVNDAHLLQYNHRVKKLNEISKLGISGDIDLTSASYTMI
TEST DETAILS: Competitive binding assay: biotinylated hGal-3 binding to microplate-adsorbed asialofetuin (ASF), spectrophotometric
CONDITIONS: Gal-3 inhibition, Table 7; read-out: IC50
REPORTED METRIC: pIC50
// field semantics: pIC50 = negative decimal log of concentration (mol/L)

Query CCC(O)C(S[C@@H]1O[C@H](CO)[C@H](O)[C@H](n2cc(-c3cc(F)c(F)c(F)c3)nn2)[C@H]1O)C(=O)N1CCC1 (stereo partly drawn) yields pIC50 of 6.30

Query CCC(O)C(S[C@@H]1O[C@H](CO)[C@H](O)[C@H](n2cc(-c3cc(F)c(F)c(F)c3)nn2)[C@H]1O)C(=O)N(C)CC (stereo partly drawn) yields pIC50 of 6.77

Query CN(CC1CC1)C(=O)C(S[C@@H]1O[C@H](CO)[C@H](O)[C@H](n2cc(-c3cc(F)c(F)c(F)c3)nn2)[C@H]1O)C(O)Cc1ccccc1 (stereo partly drawn) yields pIC50 of 6.96
